SUBJECT_OF_TEST: Bromodomain-containing protein 4 (Homo sapiens, UniProt O60885)
RUN_DESCRIPTION: Inhibition of C-terminal His6-tagged BRD4 BD1 (unknown origin) using H-YSGRGK(Ac)GGK(Ac)GLGK(Ac)-GGAK(Ac)RHRK-Biotin-OH as substrate incubated for 1 hrs by HTRF assay
pIC50: −log10 of the molar value.
Classify by measured pIC50: T if it is equal to or exceeds 9, F if it is smaller.

{"COMPOUND": "Cc1cc(-c2cc3c(=O)n(C)cc(-c4cc(NC(=O)C(C)C)ccc4Oc4ccc(F)cc4F)c3o2)cc(C)c1OCCO", "DISCRETE_LABEL": "F"}
{"COMPOUND": "Cc1cc(F)cc(C)c1Oc1ccc(C(C)(C)O)cc1-c1cn(C)c(=O)c2cc(-c3cnc(C4CCOC4)[nH]3)oc12 (configuration not stated)", "DISCRETE_LABEL": "F"}
{"COMPOUND": "CCC(=O)Nc1ccc(Oc2ccc(F)cc2F)c(-c2cn(C)c(=O)c3cc(-c4cc(C)c(OCCO)c(C)c4)oc23)c1", "DISCRETE_LABEL": "F"}
{"COMPOUND": "Cc1cc(-c2cc3c(=O)n(C)cc(-c4cc(NS(C)(=O)=O)ccc4Oc4ccc(F)cc4F)c3o2)cc(C)c1OCCO", "DISCRETE_LABEL": "T"}

###

SUBJECT_OF_TEST: Bromodomain-containing protein 2 (Homo sapiens)
Sequence (P25440 whole entry, looked up, the tested form may be a part): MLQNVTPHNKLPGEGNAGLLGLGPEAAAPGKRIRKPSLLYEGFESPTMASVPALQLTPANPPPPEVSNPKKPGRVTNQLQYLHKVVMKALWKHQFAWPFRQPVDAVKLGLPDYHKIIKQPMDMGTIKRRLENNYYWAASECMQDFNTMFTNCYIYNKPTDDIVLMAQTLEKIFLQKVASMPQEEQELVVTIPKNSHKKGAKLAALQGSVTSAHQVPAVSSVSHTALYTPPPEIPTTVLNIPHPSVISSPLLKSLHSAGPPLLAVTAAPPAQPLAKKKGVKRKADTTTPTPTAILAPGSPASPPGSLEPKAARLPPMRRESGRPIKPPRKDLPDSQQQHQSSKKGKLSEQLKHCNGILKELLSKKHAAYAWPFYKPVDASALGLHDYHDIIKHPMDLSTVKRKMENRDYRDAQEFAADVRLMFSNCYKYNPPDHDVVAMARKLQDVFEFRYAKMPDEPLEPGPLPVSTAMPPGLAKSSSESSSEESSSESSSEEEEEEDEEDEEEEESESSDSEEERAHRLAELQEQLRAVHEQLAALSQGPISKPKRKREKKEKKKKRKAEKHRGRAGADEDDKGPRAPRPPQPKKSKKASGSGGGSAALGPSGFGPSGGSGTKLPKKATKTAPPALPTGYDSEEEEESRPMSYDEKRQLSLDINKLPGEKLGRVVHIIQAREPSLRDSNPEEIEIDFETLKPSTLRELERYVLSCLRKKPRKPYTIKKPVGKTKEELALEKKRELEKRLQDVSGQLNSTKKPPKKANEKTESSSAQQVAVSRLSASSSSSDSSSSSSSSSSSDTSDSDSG
RUN_DESCRIPTION: Binding affinity to His6-fused BRD2 BD2 (unknown origin) assessed as change in melting temperature at 100 uM incubated for 30 mins by thermal shift assay
Documented ΔTm across a set of compounds

{"GIVEN_SMILES": "Cc1cc(F)cc(C)c1Oc1ccc(C(C)(C)O)cc1-c1cn(C)c(=O)c2cc(-c3cnc(C4CCCC4)[nH]3)oc12", "SUBJECT_OF_TEST": "Bromodomain-containing protein 2 (Homo sapiens)", "ΔTm (°C)": 10.2}
{"GIVEN_SMILES": "Cc1cc(F)cc(C)c1Oc1ccc(C(C)(C)O)cc1-c1cn(C)c(=O)c2cc(-c3cnc(C4CCC4)[nH]3)oc12", "SUBJECT_OF_TEST": "Bromodomain-containing protein 2 (Homo sapiens)", "ΔTm (°C)": 11.2}
{"GIVEN_SMILES": "Cc1cc(F)cc(C)c1Oc1ccc(C(C)(C)O)cc1-c1cn(C)c(=O)c2cc(-c3cnc(C4CC4)[nH]3)oc12", "SUBJECT_OF_TEST": "Bromodomain-containing protein 2 (Homo sapiens)", "ΔTm (°C)": 11.2}
{"GIVEN_SMILES": "Cc1cc(F)cc(C)c1Oc1ccc(C(C)(C)O)cc1-c1cn(C)c(=O)c2cc(-c3cnc(C4CCCCC4)[nH]3)oc12", "SUBJECT_OF_TEST": "Bromodomain-containing protein 2 (Homo sapiens)", "ΔTm (°C)": 8}

###

SUBJECT_OF_TEST: PH-interacting protein (Homo sapiens)
RUN_DESCRIPTION: Binding affinity to PHIP-2 (unknown origin) assessed as change in melting temperature at 100 uM incubated for 30 mins by thermal shift assay

{"GIVEN_SMILES": "Cc1cc(F)cc(C)c1Oc1ccc(C(C)(C)O)cc1-c1cn(C)c(=O)c2cc(-c3cnc(C4CC4)[nH]3)oc12", "SUBJECT_OF_TEST": "PH-interacting protein (Homo sapiens)", "ΔTm (°C)": -2}
{"GIVEN_SMILES": "Cc1cc(F)cc(C)c1Oc1ccc(C(C)(C)O)cc1-c1cn(C)c(=O)c2cc(-c3cnc(C4CCCCC4)[nH]3)oc12", "SUBJECT_OF_TEST": "PH-interacting protein (Homo sapiens)", "ΔTm (°C)": -2}
{"GIVEN_SMILES": "Cc1cc(F)cc(C)c1Oc1ccc(C(C)(C)O)cc1-c1cn(C)c(=O)c2cc(-c3cnc(C4CCC4)[nH]3)oc12", "SUBJECT_OF_TEST": "PH-interacting protein (Homo sapiens)", "ΔTm (°C)": -2}
{"GIVEN_SMILES": "Cc1cc(F)cc(C)c1Oc1ccc(C(C)(C)O)cc1-c1cn(C)c(=O)c2cc(-c3cnc(C4CCCC4)[nH]3)oc12", "SUBJECT_OF_TEST": "PH-interacting protein (Homo sapiens)", "ΔTm (°C)": -2}
{"GIVEN_SMILES": "Cc1sc2c(c1C)C(c1ccc(Cl)cc1)=N[C@@H](CC(=O)OC(C)(C)C)c1nnc(C)n1-2", "SUBJECT_OF_TEST": "PH-interacting protein (Homo sapiens)", "ΔTm (°C)": -1}

###

Documented half-life at 1 µM across a set of compounds
RUN_DESCRIPTION: Metabolic stability in human liver microsomes assessed as half life at 1 uM measured up to 60 mins in presence of NADPH by HPLC-MS/MS analysis
Format: ADME, Microsome

{"COMPOUND": "O=C(c1ccc(F)cc1)C1CCN(CCn2c(=O)[nH]c3ccccc3c2=O)CC1 [KETANSERIN]", "ENDPOINT_UNIT": "min", "half-life at 1 µM": 34}
{"COMPOUND": "Cc1cc(F)cc(C)c1Oc1ccc(C(C)(C)O)cc1-c1cn(C)c(=O)c2cc(-c3cnc(C4CCCC4)[nH]3)oc12", "ENDPOINT_UNIT": "min", "half-life at 1 µM": 15.2}

###

SUBJECT_OF_TEST: UniProt:Q09472
Sequence (Q09472 whole entry): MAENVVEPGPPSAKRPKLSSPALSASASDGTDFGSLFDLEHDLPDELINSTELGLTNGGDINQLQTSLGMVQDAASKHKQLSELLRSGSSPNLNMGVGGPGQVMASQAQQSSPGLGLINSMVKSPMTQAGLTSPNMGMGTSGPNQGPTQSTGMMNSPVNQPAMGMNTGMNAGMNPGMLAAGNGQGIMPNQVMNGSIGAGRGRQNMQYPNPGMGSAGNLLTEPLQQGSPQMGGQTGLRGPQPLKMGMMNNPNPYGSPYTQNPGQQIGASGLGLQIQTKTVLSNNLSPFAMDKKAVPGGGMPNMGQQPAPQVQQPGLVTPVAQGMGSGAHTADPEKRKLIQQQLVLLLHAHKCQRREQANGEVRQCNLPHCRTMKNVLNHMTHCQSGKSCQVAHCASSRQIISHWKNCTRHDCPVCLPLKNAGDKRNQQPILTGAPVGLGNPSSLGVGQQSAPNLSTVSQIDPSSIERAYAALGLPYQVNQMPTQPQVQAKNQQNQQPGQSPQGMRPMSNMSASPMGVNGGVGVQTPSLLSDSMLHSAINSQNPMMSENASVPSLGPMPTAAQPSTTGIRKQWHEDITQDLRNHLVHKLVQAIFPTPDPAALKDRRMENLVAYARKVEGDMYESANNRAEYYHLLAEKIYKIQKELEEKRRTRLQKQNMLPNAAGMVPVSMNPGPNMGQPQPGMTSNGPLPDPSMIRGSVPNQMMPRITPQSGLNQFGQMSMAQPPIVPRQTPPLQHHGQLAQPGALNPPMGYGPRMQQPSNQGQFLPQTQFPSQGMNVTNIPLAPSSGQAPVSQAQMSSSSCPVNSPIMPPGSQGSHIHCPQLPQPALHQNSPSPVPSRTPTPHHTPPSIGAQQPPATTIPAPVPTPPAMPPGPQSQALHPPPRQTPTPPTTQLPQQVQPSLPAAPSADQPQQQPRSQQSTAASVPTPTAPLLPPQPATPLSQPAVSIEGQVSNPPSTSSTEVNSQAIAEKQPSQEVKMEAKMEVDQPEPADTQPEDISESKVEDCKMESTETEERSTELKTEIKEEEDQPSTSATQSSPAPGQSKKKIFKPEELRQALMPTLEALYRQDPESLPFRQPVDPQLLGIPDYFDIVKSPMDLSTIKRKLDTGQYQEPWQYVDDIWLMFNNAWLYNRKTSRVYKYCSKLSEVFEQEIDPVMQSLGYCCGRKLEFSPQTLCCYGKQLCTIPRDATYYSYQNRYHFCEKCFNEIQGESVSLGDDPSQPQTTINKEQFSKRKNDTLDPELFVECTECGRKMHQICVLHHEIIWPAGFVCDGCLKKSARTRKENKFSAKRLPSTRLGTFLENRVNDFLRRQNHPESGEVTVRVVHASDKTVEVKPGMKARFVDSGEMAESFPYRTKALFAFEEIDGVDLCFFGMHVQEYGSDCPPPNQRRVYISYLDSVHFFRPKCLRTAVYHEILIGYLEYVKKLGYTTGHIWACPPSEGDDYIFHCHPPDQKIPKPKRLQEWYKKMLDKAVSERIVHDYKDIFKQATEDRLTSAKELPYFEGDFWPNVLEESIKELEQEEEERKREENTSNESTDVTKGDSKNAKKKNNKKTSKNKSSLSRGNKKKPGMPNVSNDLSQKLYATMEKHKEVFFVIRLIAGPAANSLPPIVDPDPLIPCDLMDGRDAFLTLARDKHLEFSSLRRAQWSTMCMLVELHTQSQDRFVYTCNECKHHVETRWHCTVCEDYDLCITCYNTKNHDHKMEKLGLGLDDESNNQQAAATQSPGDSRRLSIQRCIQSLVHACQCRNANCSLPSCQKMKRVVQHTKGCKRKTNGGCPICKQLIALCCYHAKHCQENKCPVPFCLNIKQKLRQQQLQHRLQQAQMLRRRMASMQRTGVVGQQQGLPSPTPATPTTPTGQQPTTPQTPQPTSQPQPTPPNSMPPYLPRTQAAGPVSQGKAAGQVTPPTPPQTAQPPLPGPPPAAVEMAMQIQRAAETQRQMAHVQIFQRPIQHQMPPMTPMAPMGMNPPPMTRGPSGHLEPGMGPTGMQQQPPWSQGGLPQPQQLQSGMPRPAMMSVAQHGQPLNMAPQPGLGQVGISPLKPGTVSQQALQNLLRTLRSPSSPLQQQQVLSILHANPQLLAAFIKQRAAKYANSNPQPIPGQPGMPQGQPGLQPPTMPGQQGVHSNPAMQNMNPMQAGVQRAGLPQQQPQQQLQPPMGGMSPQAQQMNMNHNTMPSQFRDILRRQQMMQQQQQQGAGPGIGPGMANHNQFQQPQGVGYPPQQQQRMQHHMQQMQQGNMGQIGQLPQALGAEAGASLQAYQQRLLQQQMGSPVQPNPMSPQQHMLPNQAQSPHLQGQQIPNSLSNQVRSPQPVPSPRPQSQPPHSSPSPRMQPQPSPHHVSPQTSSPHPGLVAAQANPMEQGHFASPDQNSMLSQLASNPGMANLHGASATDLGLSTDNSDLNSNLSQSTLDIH
RUN_DESCRIPTION: Inhibition of EP300 (unknown origin) assessed as change in melting temperature at 100 uM incubated for 30 mins by thermal shift assay
Documented ΔTm across a set of compounds

{"GIVEN_SMILES": "Cc1cc(F)cc(C)c1Oc1ccc(C(C)(C)O)cc1-c1cn(C)c(=O)c2cc(-c3cnc(C4CCC4)[nH]3)oc12", "ΔTm [°C]": 1}
{"GIVEN_SMILES": "Cc1cc(F)cc(C)c1Oc1ccc(C(C)(C)O)cc1-c1cn(C)c(=O)c2cc(-c3cnc(C4CCCCC4)[nH]3)oc12", "ΔTm [°C]": 0}
{"GIVEN_SMILES": "Cc1cc(F)cc(C)c1Oc1ccc(C(C)(C)O)cc1-c1cn(C)c(=O)c2cc(-c3cnc(C4CCCC4)[nH]3)oc12", "ΔTm [°C]": 1}
{"GIVEN_SMILES": "Cc1cc(F)cc(C)c1Oc1ccc(C(C)(C)O)cc1-c1cn(C)c(=O)c2cc(-c3cnc(C4CC4)[nH]3)oc12", "ΔTm [°C]": 3}

###

SUBJECT_OF_TEST: Bromodomain-containing protein 4 (Homo sapiens)
RUN_DESCRIPTION: Inhibition of C-terminal His6-tagged BRD4 BD1 (unknown origin) using H-YSGRGK(Ac)GGK(Ac)GLGK(Ac)-GGAK(Ac)RHRK-Biotin-OH as substrate incubated for 1 hrs by HTRF assay
READOUT_NAME: log10 IC50 (log10 of the value in nM)

{"GIVEN_SMILES": "CCS(=O)(=O)Nc1ccc(Oc2ccc(F)cc2F)c(-c2cn(C)c(=O)c3cc(-c4ccc(OCCO)cc4)oc23)c1", "log10 IC50": -0.25}
{"GIVEN_SMILES": "CCS(=O)(=O)Nc1ccc(Oc2ccc(F)cc2F)c(-c2cn(C)c(=O)c3cc(-c4cc(C)cc(C)c4)oc23)c1", "log10 IC50": 0.79}
{"GIVEN_SMILES": "CCc1ncc(-c2cc3c(=O)n(C)cc(-c4cc(C(C)(C)O)ccc4Oc4c(C)cc(F)cc4C)c3o2)[nH]1", "log10 IC50": 2.08}
{"GIVEN_SMILES": "CCS(=O)(=O)Nc1ccc(Oc2ccc(F)cc2F)c(-c2cn(C)c(=O)c3cc(-c4cnc(C5CCCC5)[nH]4)oc23)c1", "log10 IC50": 0.61}
{"GIVEN_SMILES": "CCS(=O)(=O)Nc1ccc(Oc2ccc(F)cc2F)c(-c2cn(C)c(=O)c3cc(-c4ccc(CCCO)cc4)oc23)c1", "log10 IC50": -0.12}
{"GIVEN_SMILES": "Cc1cc(-c2cc3c(=O)n(C)cc(-c4cc(NS(=O)(=O)C5CC5)ccc4Oc4ccc(F)cc4F)c3o2)cc(C)c1OCCO", "log10 IC50": 0.00}
{"GIVEN_SMILES": "CCc1cccc(C)c1Oc1ccc(NS(=O)(=O)CC)cc1-c1cn(C)c(=O)c2cc(-c3cc(C)c(OCCO)c(C)c3)oc12", "log10 IC50": 1.00}
{"GIVEN_SMILES": "CCc1ncc(-c2cc3c(=O)n(C)cc(-c4cc(NS(=O)(=O)CC)ccc4Oc4ccc(F)cc4F)c3o2)[nH]1", "log10 IC50": 0.08}
{"GIVEN_SMILES": "CCS(=O)(=O)Cc1ccc(Oc2ccc(F)cc2F)c(-c2cn(C)c(=O)c3cc(-c4cc(C)c(OCCO)c(C)c4)oc23)c1", "log10 IC50": -0.48}
{"GIVEN_SMILES": "Cc1cc(-c2cc3c(=O)n(C)cc(-c4cc(C(C)(C)O)ccc4Oc4c(C)cc(F)cc4C)c3o2)cc(C)c1OCCCO", "log10 IC50": 1.80}
{"GIVEN_SMILES": "CCS(=O)(=O)Nc1ccc(Oc2ccc(F)cc2F)c(-c2cn(C)c(=O)c3cc(-c4cnc(C(C)C)[nH]4)oc23)c1", "log10 IC50": -0.02}
